system-tested: biotinylated human DLL3 protein expressed as a human IgG1 fusion protein (human) (UniProt Q9NYJ7)
Sequence (Q9NYJ7 other isoform, or with tags, fused parts or gaps): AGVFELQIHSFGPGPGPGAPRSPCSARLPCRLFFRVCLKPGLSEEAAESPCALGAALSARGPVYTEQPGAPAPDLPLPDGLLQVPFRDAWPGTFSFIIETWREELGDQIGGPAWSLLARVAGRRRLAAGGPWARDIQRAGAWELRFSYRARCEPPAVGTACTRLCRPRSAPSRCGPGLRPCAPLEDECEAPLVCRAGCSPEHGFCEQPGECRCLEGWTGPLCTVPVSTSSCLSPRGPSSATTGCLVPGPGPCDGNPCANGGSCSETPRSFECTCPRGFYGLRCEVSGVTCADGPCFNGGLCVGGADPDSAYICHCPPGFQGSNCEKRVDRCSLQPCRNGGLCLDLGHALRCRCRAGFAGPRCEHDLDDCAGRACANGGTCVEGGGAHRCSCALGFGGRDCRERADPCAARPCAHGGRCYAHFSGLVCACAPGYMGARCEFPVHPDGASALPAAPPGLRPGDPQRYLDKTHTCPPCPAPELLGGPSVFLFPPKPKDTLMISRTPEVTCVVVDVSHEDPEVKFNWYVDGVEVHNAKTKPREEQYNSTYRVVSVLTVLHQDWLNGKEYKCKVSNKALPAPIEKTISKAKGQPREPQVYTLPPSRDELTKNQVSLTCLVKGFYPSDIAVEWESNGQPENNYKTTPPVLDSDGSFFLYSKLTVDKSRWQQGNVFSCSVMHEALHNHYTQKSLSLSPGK
protocol-notes: Octet BLI; biotinylated huDLL3-IgG1 fusion on streptavidin tips; single 50 nM; conditioned medium
# Lookup of reported pKd keyed by entry
API: returns pKd as number; meaning -log10 of concentration in mol/L.

The following binders have reported results that may help.
anti-DLL3 trispecific protein 4A02 (protein, part only; not given: anti-CD3 fragment and anti-albumin domain, part only) chain, part: EVQLVESGGGLVQPGGSLTLSCAASGSSVRFLSMAWYRQAPGKKRELVAGISNDGSTDYIDSVKGRFTISRDNAKNSVYLQMNSLRAEDTAVYYCYAYRWKTRYTYWGQGTLVTVSSGGGGSGGGSGGGGSGGGSHHHHHH: 8.05
anti-DLL3 trispecific protein 1C012 (protein, part only; not given: anti-CD3 and anti-albumin domains, part only) chain, part: EVQLVESGGGLVQPGGSLTLSCVASGITSSINAMGWYRRAPGKQRELVAGISSDGSKVYAGSVKGRFTISRDNAKNSVYLQMNSLRAEDTAVYYCYYFRTVRGSSMRYWGQGTLVTVSSGGGGSGGGSGGGGSGGGSHHHHHH: 8.07

Exercise: Answer with the recorded pKd for the binder listed here: anti-DLL3 trispecific protein 2A08 (protein, part only; not given: anti-CD3 and anti-albumin domains, part only) chain, part: EVQLVESGGGLVQPGGSLTLSCVASGSTKSINAMGWYRRAPGKQRELVAGISSDGSKVYRDSVKGRFTISRDNAKNSVYLQMNSLRAEDTAVYYCYYFRTSSGSSMRYWGQGTLVTVSSGGGGSGGGSGGGGSGGGSHHHHHH
Key: 8.11

Exercise: Look up and state reported pKd for anti-DLL3 trispecific protein 2G07 (protein, part only; not given: anti-CD3 and anti-albumin domains, part only) chain, part: EVQLVESGGGLVQPGGSLTLSCVASGSTSSINAMAWYRRAPGKQRELVAGISSDGSKVYADSVKGRFTISRDNAKNSVYLQMNSLRAEDTAVYYCYYFRTVQGSSMRYWGQGTLVTVSSGGGGSGGGSGGGGSGGGSHHHHHH
Key: 8.19
